# log10(Ki) per record follows
biological target: hTG2 (Homo sapiens, UniProt P21980); experiment: biochemical; conditions: fit to saturation kinetics model; 25° C., pH 6.95, 100 μM AL5; read-out: KI (converted)
Sequence (P21980 whole entry): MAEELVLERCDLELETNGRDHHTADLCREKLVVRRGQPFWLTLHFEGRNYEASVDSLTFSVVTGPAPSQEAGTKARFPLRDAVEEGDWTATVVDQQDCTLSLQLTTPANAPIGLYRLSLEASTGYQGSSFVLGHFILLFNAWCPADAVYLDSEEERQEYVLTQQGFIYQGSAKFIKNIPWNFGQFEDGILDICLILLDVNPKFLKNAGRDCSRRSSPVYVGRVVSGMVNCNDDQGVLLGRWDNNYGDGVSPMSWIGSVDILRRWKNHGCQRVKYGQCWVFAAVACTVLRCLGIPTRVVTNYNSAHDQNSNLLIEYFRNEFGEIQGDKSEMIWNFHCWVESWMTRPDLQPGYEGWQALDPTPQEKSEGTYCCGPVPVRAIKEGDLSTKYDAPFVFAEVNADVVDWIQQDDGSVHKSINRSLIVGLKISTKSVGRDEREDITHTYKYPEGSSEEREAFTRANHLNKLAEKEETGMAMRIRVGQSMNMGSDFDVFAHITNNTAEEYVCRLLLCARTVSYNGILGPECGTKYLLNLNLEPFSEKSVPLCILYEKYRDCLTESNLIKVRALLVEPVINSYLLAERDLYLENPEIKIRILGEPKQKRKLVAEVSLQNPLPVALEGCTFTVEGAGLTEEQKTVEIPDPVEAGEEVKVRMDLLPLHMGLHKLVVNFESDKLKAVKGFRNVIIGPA
Scale type: logarithmic (base 10). Underlying Ki unit: µM.

C=CC(=O)NCCCC[C@H](NC(=O)C1CCCCC1)C(=O)N1CCN(C(=O)c2cccc3ccccc23)CC1 | 1.00

Exam item: Consider the compound shown here: C=CC(=O)NCCCC[C@H](NC(=O)C1CC1)C(=O)N1CCN(C(=O)c2cccc3ccccc23)CC1 What is its recorded log10(Ki)?
Marked response: 1.03

Exam item: Consider the compound shown here: C=CC(=O)NCCCC[C@H](NC(=O)Cc1ccc(F)cc1F)C(=O)N1CCN(C(=O)c2cccc3ccccc23)CC1 What is its recorded log10(Ki)?
Marked response: 0.45

Exam item: Consider the compound shown here: C=CC(=O)NCCCC[C@H](NC(=O)CCc1ccccc1)C(=O)N1CCN(C(=O)c2cccc3ccccc23)CC1 What is its recorded log10(Ki)?
Marked response: 0.45

Exam item: Consider the compound shown here: C=CC(=O)NCCCC[C@H](NS(=O)(=O)CC)C(=O)N1CCN(C(=O)c2cccc3ccccc23)CC1 What is its recorded log10(Ki)?
Marked response: 1.42

Exam item: Consider the compound shown here: C=CC(=O)NCCCC[C@H](NC(=O)Cc1cccc(Cl)c1)C(=O)N1CCN(C(=O)c2cccc3ccccc23)CC1 What is its recorded log10(Ki)?
Marked response: 0.00

Exam item: Consider the compound shown here: C=CC(=O)NCCCC[C@H](NS(=O)(=O)Cc1ccccc1)C(=O)N1CCN(C(=O)c2cccc3ccccc23)CC1 What is its recorded log10(Ki)?
Marked response: 1.67
